Catalogue of compounds with associated GI50
Tested on: UACC-257
Assay: NCI tumour cell line growth inhibition, 48 h
The source made the active and inactive calls. Cut-off read from the data, not from the text of the source: active = GI50 up to about 1.1 µM and inactive = higher.

Consider the following illustrative entries.
INSERT INTO measurements (compound, observed_result) VALUES
  ('COC(=O)C1(C(=O)OC)N=C(C)OC1c1ccccc1O (stereo not given)', '> 100 µM (inactive)'),
  ('CCOC(=O)C(=O)C=P(c1ccccc1)(c1ccccc1)c1ccccc1', '> 100 µM (inactive)'),
  ('CC(C)Oc1cccc(N2C(n3ccnc3)=Nc3ccncc3S2(=O)=O)c1', '16.4 µM (inactive)'),
  ('Cc1ccc(-c2cc(-c3ccc(Cl)cc3)nc(/N=C3\C(=O)N(CN4CCOCC4)c4ccc(Cl)cc43)n2)cc1', '33.3 µM (inactive)');

## Input Return reported GI50; argument: CC1=NC(=O)C(C)(c2ccccc2)N1CCc1ccccc1 (stereo not given)
## Output 72.9 µM (inactive)

Where these numbers come from: ChEMBL document CHEMBL1201862
